Target: TRPA1 (Homo sapiens)
Assay: Determination of TRPA1 activity in vitro (TRPA1 antagonism in vitro), procedure of Wei et al., Anesthesiology 111 (2009) 147-154
Description: EXPERIMENT 1: Determination of TRPA1 activity in vitro The illustrative examples of the present invention were screened for TRPA1 activity according to a procedure described in Wei et al., Anesthesiology 111 (2009) 147-154. Table 1. TRPA1 antagonism in vitro.
MEASUREMENT NAME: IC50 (µM)

Looking up "COc1cc(Cl)cc(CNC(=O)[C@@H]2CCCN2S(=O)(=O)c2ccc(F)cc2)c1" , I see its IC50 listed as 5.4

Summary for this compound, "O=C(NCc1cc(F)cc(OC(F)F)c1)[C@@H]1C[C@@H](F)CN1S(=O)(=O)c1ccc(F)cc1" : IC50 is 24.1

IC50 measured on "CC(C)CSc1ccnc(CNC(=O)[C@@H]2CCCN2S(=O)(=O)c2ccc(F)cc2)c1" = 8.5

compound "CCCC(=O)c1cccc(CNC(=O)[C@@H]2CCCN2S(=O)(=O)c2ccc(F)cc2)c1" , IC50 observed: 10.4

Quick note, IC50 for "O=C(NCc1ccc(Br)cc1)[C@@H]1CCCN1S(=O)(=O)c1ccc(F)cc1" landed at 11.6

[a] O=C(NCc1cc(OCC(F)(F)F)ccn1)[C@@H]1CCCN1S(=O)(=O)c1ccc(F)cc1
[b] O=C(NCc1cc(C(F)(F)F)ccn1)[C@@H]1CCCN1S(=O)(=O)c1ccc(F)cc1
Task: Of a and b , whose reported IC50 is the larger number? Indicate your choice by writing its label.
Output: b
(b: 33.8 µM, a: 17.3 µM)

* * *

target: TRPA1 (Homo sapiens, UniProt O75762); test: Determination of TRPA1 activity in vitro (TRPA1 antagonism in vitro), procedure of Wei et al., Anesthesiology 111 (2009) 147-154
Sequence (O75762 whole entry): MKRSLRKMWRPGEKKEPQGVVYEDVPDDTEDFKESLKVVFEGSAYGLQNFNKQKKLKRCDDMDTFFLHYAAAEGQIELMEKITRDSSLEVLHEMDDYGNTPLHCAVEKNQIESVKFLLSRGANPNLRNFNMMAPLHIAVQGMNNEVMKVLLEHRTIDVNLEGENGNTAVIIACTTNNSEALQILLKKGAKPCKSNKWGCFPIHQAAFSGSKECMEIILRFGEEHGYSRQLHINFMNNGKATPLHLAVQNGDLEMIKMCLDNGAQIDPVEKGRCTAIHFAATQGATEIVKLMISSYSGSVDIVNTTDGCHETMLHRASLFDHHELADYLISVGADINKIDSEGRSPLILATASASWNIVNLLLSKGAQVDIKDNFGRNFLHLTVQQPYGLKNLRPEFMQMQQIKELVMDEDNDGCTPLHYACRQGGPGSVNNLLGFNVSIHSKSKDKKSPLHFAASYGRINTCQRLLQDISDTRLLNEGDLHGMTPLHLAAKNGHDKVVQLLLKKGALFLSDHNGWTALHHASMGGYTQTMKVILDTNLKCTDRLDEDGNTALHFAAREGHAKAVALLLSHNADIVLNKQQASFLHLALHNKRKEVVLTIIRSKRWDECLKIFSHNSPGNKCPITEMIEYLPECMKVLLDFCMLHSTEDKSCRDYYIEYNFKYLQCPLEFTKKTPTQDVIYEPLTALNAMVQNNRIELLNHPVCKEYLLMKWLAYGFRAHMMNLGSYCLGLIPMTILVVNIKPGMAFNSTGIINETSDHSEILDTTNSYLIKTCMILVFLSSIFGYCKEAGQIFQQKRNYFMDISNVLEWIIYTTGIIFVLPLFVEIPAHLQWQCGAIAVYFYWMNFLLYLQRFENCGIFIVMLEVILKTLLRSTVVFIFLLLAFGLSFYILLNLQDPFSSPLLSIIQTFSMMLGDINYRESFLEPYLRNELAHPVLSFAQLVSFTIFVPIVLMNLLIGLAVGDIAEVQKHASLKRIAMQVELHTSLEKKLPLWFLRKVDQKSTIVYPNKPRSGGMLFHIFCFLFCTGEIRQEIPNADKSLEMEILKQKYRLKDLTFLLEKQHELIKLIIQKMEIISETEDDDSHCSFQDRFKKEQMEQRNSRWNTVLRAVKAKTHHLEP
MEASUREMENT NAME: IC50 (µM)

# IC50 of "O=C(NCc1cccc(C(F)(F)F)c1)[C@@H]1CCCN1S(=O)(=O)c1ccccc1" = 17

[A] O=C(NCc1cccc(Br)c1)[C@@H]1CCCN1S(=O)(=O)c1ccccc1
[B] O=C(NCc1ccc(C(F)(F)F)cc1)[C@@H]1CCCN1S(=O)(=O)c1ccccc1
[C] O=C(NCc1cccc(C2CC2)c1)[C@@H]1CCCN1S(=O)(=O)c1ccc(F)cc1
Task: Sort these compounds on IC50 so the largest reading comes first. Please respond by ranking the labels in the order requested.
Output: A, B, C

* * *

target: TRPA1 (Homo sapiens, UniProt O75762); experiment: Determination of TRPA1 activity in vitro (TRPA1 antagonism in vitro), procedure of Wei et al., Anesthesiology 111 (2009) 147-154
MEASUREMENT NAME: IC50 (µM)

Would you please look over these solved cases?
For "CSCCOc1cccc(CNC(=O)[C@@H]2CCCN2S(=O)(=O)c2ccc(F)cc2)c1" the compound record lists IC50 as 4

Entry "CCCNc1cccc(CNC(=O)[C@@H]2CCCN2S(=O)(=O)c2ccc(F)cc2)c1" ; IC50 = 14.1

Sure, the documented IC50 for "CCCc1cc(CNC(=O)[C@@H]2CCCN2S(=O)(=O)c2ccccc2)ccc1C#N" is 4.4

Per the records, this compound ( "O=C(NCc1ccc(Cl)cc1)[C@@H]1CCCN1S(=O)(=O)c1ccc(F)cc1" ) has IC50 equal to 12.5

What the record says about "O=C(NCc1ccc(Br)cc1F)[C@@H]1C[C@@H](F)CN1S(=O)(=O)c1ccc(F)cc1" : IC50 is 16.3

Documented IC50 of "CC(C)CCOc1cncc(CNC(=O)[C@@H]2C[C@@H](F)CN2S(=O)(=O)c2ccc(F)cc2)c1" : 13.6

Lab book: IC50 of "O=C(NCc1cccc(S(F)(F)(F)(F)F)c1)[C@@H]1CCCN1S(=O)(=O)c1ccccc1" noted as 6.7

Data point: "CC(C)CSc1cc(CNC(=O)[C@@H]2CCCN2S(=O)(=O)c2ccc(F)cc2)ccn1" ; IC50 = 9.3

For reference, reported IC50 for "O=C(NCc1ccnc(OCCC(F)(F)F)c1)[C@@H]1CCCN1S(=O)(=O)c1cc(F)cc(F)c1" stands at 16.9

Looking up "O=C(NCc1ccc(C(F)(F)F)cc1)[C@@H]1C[C@@H](F)CN1S(=O)(=O)c1ccc(F)cc1" , I see its IC50 listed as 14.5

[I] O=C(NCc1cccc(C2CC2)c1)[C@@H]1CCCN1S(=O)(=O)c1ccccc1
[II] CCOc1cc(F)cc(CNC(=O)[C@@H]2CCCN2S(=O)(=O)c2ccc(F)cc2)c1
[III] CC(C)c1cc(CNC(=O)[C@@H]2CCCN2S(=O)(=O)c2ccccc2)ccc1C#N
[IV] O=C(NCc1ccnc(OCCC(F)(F)F)c1)[C@@H]1C[C@@H](F)CN1S(=O)(=O)c1ccc(F)cc1
Task: Please order the records by their reported IC50, lowest number first. Reply: labels, ordered per the request.
Output: II, III, I, IV
(II: 5.9 µM, III: 9.3 µM, I: 13.6 µM, IV: 37 µM)
